Sequence of the target: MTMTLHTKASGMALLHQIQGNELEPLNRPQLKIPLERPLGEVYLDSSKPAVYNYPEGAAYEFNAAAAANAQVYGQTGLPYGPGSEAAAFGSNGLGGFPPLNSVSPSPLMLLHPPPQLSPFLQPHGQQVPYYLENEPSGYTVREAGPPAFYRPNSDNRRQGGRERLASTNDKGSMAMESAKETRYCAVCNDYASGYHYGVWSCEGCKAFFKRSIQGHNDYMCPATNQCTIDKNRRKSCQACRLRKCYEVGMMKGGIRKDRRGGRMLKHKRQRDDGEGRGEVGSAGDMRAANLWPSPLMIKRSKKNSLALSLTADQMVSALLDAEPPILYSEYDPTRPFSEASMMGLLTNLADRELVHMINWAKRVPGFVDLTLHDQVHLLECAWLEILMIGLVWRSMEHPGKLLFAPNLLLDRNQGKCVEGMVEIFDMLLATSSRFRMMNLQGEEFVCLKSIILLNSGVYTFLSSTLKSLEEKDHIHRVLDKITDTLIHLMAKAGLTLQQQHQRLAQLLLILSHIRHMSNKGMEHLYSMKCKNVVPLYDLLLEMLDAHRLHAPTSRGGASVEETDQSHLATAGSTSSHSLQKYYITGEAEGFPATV

{"molecular_string": "O=c1c2ccccc2oc2c1oc1cc(O)ccc12", "IC50": "> 5000 nM"}
{"molecular_string": "O=c1c2ccc(O)cc2oc2c1oc1c(Br)cc(O)cc12", "IC50": "> 5000 nM"}
{"molecular_string": "O=c1c2cc(O)ccc2oc2c1oc1ccc(O)cc12", "IC50": "180 nM"}

###

# target_of_assay: Estrogen receptor beta (Homo sapiens, UniProt Q92731)
# Sequence (Q92731 whole entry): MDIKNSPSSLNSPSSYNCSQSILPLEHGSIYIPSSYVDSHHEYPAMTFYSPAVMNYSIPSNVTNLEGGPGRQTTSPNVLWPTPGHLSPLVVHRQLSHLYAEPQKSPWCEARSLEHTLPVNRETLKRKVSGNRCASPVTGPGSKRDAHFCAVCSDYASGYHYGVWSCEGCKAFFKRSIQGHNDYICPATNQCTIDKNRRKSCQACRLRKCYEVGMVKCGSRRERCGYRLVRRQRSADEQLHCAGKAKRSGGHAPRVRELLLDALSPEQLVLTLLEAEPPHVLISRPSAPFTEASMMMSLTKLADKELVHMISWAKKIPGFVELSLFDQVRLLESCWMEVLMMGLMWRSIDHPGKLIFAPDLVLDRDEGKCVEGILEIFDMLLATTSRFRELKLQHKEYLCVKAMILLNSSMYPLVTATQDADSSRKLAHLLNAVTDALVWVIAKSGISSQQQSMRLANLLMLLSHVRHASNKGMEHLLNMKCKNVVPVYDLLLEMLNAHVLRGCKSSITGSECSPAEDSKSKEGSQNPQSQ

{"molecular_string": "O=c1c2oc3ccc(O)cc3c2oc2cc(O)cc(O)c12", "target_of_assay": "Estrogen receptor beta (Homo sapiens, UniProt Q92731)", "IC50": "0.042 µM"}
{"molecular_string": "O=c1c2ccc(O)cc2oc2c1oc1c(Br)cc(O)cc12", "target_of_assay": "Estrogen receptor beta (Homo sapiens, UniProt Q92731)", "IC50": "1.74 µM"}
{"molecular_string": "O=c1c2oc3c(Br)cc(O)cc3c2oc2cc(O)cc(O)c12", "target_of_assay": "Estrogen receptor beta (Homo sapiens, UniProt Q92731)", "IC50": "0.343 µM"}
{"molecular_string": "O=c1c2c(O)cc(O)cc2oc2oc3cc(O)ccc3c12", "target_of_assay": "Estrogen receptor beta (Homo sapiens, UniProt Q92731)", "IC50": "0.0017 µM"}
{"molecular_string": "N#Cc1cc(O)cc2c1oc1c(=O)c3c(O)cc(O)cc3oc12", "target_of_assay": "Estrogen receptor beta (Homo sapiens, UniProt Q92731)", "IC50": "1.34 µM"}
